Tested on: Escherichia coli TOP10
assay: shrunken log2 fold change of peptide-encoding DNA abundance (4.5 h post-induction vs induction); higher = less antimicrobial activity (less host growth inhibition)
condition-set: time post-induction: 4.5 h; library: site-saturation at positions 5, 18, 19, 20
parameter-measured: shrunken log2 fold change

Observe how each entry below is paired with its result.
>>> value_reported("RRIRPRPPRLPRPRPRPIENPRP")
-0.414
>>> value_reported("RRIRVRPPRLPRPRPRPNMQPRP")
-0.33

For the 3 sequences below, give their shrunken log2 fold change values.
1. RRIRMRPPRLPRPRPRPVTGPRP
2. RRIRIRPPRLPRPRPRPWVGPRP
3. RRIRGRPPRLPRPRPRPAPLPRP

1. -0.00102
2. -0.248
3. 0.893

For the 3 sequences below, give their shrunken log2 fold change values.
1. RRIRARPPRLPRPRPRPDNQPRP
2. RRIRKRPPRLPRPRPRPMIQPRP
3. RRIRKRPPRLPRPRPRPDWRPRP

0.0635
0.195
0.499

----------
System: Escherichia coli TOP10
assay: shrunken log2 fold change of peptide-encoding DNA abundance (4.5 h post-induction vs induction); higher = less antimicrobial activity (less host growth inhibition)
condition-set: time post-induction: 4.5 h; library: site-saturation at positions 5, 18, 19, 20
Lab note: anything with shrunken log2 fold change at or over -0.03 counts as satisfied; the rest go in not satisfied.

Example cases with answers are listed next.
>>> assigned_class("RRIRIRPPRLPRPRPRPLKDPRP")
"not satisfied"
>>> assigned_class("RRIRPRPPRLPRPRPRPICIPRP")
"not satisfied"
>>> assigned_class("RRIRVRPPRLPRPRPRPMDWPRP")
"not satisfied"
>>> assigned_class("RRIRNRPPRLPRPRPRPPHDPRP")
"satisfied"
>>> assigned_class("RRIRVRPPRLPRPRPRPMLLPRP")
"not satisfied"

Entry RRIRERPPRLPRPRPRPVMIPRP : is its shrunken log2 fold change no less than -0.03?
not satisfied

Next sequence up: RRIRPRPPRLPRPRPRPDSNPRP
not satisfied

Next sequence up: RRIRYRPPRLPRPRPRPKCAPRP
satisfied

Next sequence up: RRIRPRPPRLPRPRPRPWRSPRP
satisfied

Next sequence up: RRIRTRPPRLPRPRPRPQEGPRP
satisfied

----------
Tested on: Escherichia coli TOP10
assay: shrunken log2 fold change of peptide-encoding DNA abundance (4.5 h post-induction vs induction); higher = less antimicrobial activity (less host growth inhibition)
condition-set: time post-induction: 4.5 h; library: site-saturation at positions 5, 18, 19, 20
parameter-measured: shrunken log2 fold change
One number for each entry.

Observe how each entry below is paired with its result.
>>> value_reported("RRIRLRPPRLPRPRPRPLPQPRP")
0.0529
>>> value_reported("RRIRIRPPRLPRPRPRPVVVPRP")
-0.0561
>>> value_reported("RRIRIRPPRLPRPRPRPEVEPRP")
-0.0136

For the 3 sequences below, give their shrunken log2 fold change values.
1. RRIRPRPPRLPRPRPRPQYWPRP
2. RRIRTRPPRLPRPRPRPCMQPRP
3. RRIRVRPPRLPRPRPRPKFDPRP

1. -0.0415
2. 1.86
3. 0.21

For the 7 sequences below, give their shrunken log2 fold change values.
1. RRIRQRPPRLPRPRPRPFQLPRP
2. RRIRDRPPRLPRPRPRPVREPRP
3. RRIRFRPPRLPRPRPRPHDLPRP
4. RRIRNRPPRLPRPRPRPIHLPRP
5. RRIRTRPPRLPRPRPRPPDQPRP
6. RRIRFRPPRLPRPRPRPLTPPRP
7. RRIRGRPPRLPRPRPRPRHWPRP

1: -0.00805; 2: 0.929; 3: -0.203; 4: -0.73; 5: 0.601; 6: 0.0478; 7: 0.439

----------
Tested on: Escherichia coli TOP10
assay: shrunken log2 fold change of peptide-encoding DNA abundance (4.5 h post-induction vs induction); higher = less antimicrobial activity (less host growth inhibition)
condition-set: time post-induction: 4.5 h; library: site-saturation at positions 5, 18, 19, 20
So I've got a bunch of sequences here, and I need their shrunken log2 fold change values.
One number for each entry.

>>> value_reported("RRIRARPPRLPRPRPRPPKDPRP")
1.78
>>> value_reported("RRIRRRPPRLPRPRPRPGFVPRP")
0.423
>>> value_reported("RRIRMRPPRLPRPRPRPVMDPRP")
0.025
>>> value_reported("RRIRSRPPRLPRPRPRPFPPPRP")
-0.0275
>>> value_reported("RRIRDRPPRLPRPRPRPYGQPRP")
-0.0816
>>> value_reported("RRIRARPPRLPRPRPRPHPRPRP")
0.696

For the 2 sequences below, give their shrunken log2 fold change values.
1. RRIRFRPPRLPRPRPRPHTNPRP
2. RRIRNRPPRLPRPRPRPTWDPRP

[-0.453, -0.0897]

For the 8 sequences below, give their shrunken log2 fold change values.
1. RRIRMRPPRLPRPRPRPFLLPRP
2. RRIRWRPPRLPRPRPRPWPHPRP
3. RRIRKRPPRLPRPRPRPTQYPRP
4. RRIRWRPPRLPRPRPRPEIKPRP
5. RRIRCRPPRLPRPRPRPFIAPRP
6. RRIRTRPPRLPRPRPRPRDLPRP
7. RRIRQRPPRLPRPRPRPQEIPRP
8. RRIRWRPPRLPRPRPRPVMCPRP

1. -0.227
2. 0.204
3. 0.0924
4. -0.0674
5. -0.613
6. 0.064
7. 0.0292
8. -0.0922

----------
Tested on: Escherichia coli TOP10
assay: shrunken log2 fold change of peptide-encoding DNA abundance (4.5 h post-induction vs induction); higher = less antimicrobial activity (less host growth inhibition)
condition-set: time post-induction: 4.5 h; library: site-saturation at positions 5, 18, 19, 20
So I've got a bunch of sequences here, and I need their shrunken log2 fold change values.
One number for each entry.

>>> value_reported("RRIRRRPPRLPRPRPRPRYKPRP")
-0.0686
>>> value_reported("RRIRLRPPRLPRPRPRPINFPRP")
-0.426
>>> value_reported("RRIRRRPPRLPRPRPRPGFSPRP")
0.131
>>> value_reported("RRIRRRPPRLPRPRPRPPYEPRP")
0.492
>>> value_reported("RRIRERPPRLPRPRPRPENHPRP")
-0.455

For the 4 sequences below, give their shrunken log2 fold change values.
1. RRIRERPPRLPRPRPRPQALPRP
2. RRIRLRPPRLPRPRPRPRNWPRP
3. RRIRQRPPRLPRPRPRPHMDPRP
4. RRIRFRPPRLPRPRPRPEENPRP

1. -0.378
2. 0.751
3. -1.07
4. -0.00844

----------
System: Escherichia coli TOP10
assay: shrunken log2 fold change of peptide-encoding DNA abundance (4.5 h post-induction vs induction); higher = less antimicrobial activity (less host growth inhibition)
condition-set: time post-induction: 4.5 h; library: site-saturation at positions 5, 18, 19, 20
Please map values of shrunken log2 fold change to classes as shown: LOW = under -0.2, MID = from -0.2 up to 0.07, HIGH = 0.07 and over

Example cases with answers are listed next.
>>> assigned_class("RRIRRRPPRLPRPRPRPQRFPRP")
"HIGH"
>>> assigned_class("RRIRQRPPRLPRPRPRPNIAPRP")
"MID"

Please classify: RRIRVRPPRLPRPRPRPNYAPRP
MID

Next sequence up: RRIRERPPRLPRPRPRPHGYPRP
MID

Next sequence up: RRIRCRPPRLPRPRPRPWMFPRP
LOW

Next sequence up: RRIRKRPPRLPRPRPRPRTAPRP
HIGH

----------
So I've got a bunch of sequences here, and I need their shrunken log2 fold change values.
System: Escherichia coli TOP10;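 further: peptides expressed intracellularly from a pBAD plasmid library in pooled LB shake-flask culture, induced with 0.3% L-arabinose, DNA abundance read by NGS, three biological replicates, DESeq2 with apeglm shrinkage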
assay: shrunken log2 fold change of peptide-encoding DNA abundance (4.5 h post-induction vs induction); higher = less antimicrobial activity (less host growth inhibition)
condition-set: time post-induction: 4.5 h; library: site-saturation at positions 5, 18, 19, 20
Answers are plain numbers.

Observe how each entry below is paired with its result.
>>> value_reported("RRIRERPPRLPRPRPRPHIWPRP")
0.00885
>>> value_reported("RRIRVRPPRLPRPRPRPMWIPRP")
0.00541
>>> value_reported("RRIRMRPPRLPRPRPRPRWFPRP")
0.717

For the 6 sequences below, give their shrunken log2 fold change values.
1. RRIRMRPPRLPRPRPRPPITPRP
2. RRIRGRPPRLPRPRPRPDYWPRP
3. RRIRWRPPRLPRPRPRPYGIPRP
4. RRIRARPPRLPRPRPRPGKKPRP
5. RRIRFRPPRLPRPRPRPHADPRP
6. RRIRWRPPRLPRPRPRPCRFPRP

-0.109
-0.027
-0.00133
-0.133
0.0798
0.0225

For the 6 sequences below, give their shrunken log2 fold change values.
1. RRIRDRPPRLPRPRPRPFDHPRP
2. RRIRHRPPRLPRPRPRPSKSPRP
3. RRIRQRPPRLPRPRPRPQQTPRP
4. RRIRSRPPRLPRPRPRPWRMPRP
5. RRIRWRPPRLPRPRPRPRYCPRP
6. RRIRFRPPRLPRPRPRPAFIPRP

0.0299
-0.143
0.178
-0.181
-0.139
-0.274

Values from the supplement of paper PMC9112550
